B1: COX4I1 (parent)
chain: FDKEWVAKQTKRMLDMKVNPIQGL

variants of: B1; assay: protein stability index of a GFP-peptide fusion (GPS, HEK-293T) (PSI 1-6); higher = more stable; conditions: c terminus: a fixed tail appended;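 note: lentivirally expressed fusions sorted by FACS into six bins by GFP to DsRed ratio, PSI derived from sequencing read proportions per bin multiplied by bin number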
Outcome Measure: protein stability index
Reply with just the number.

Worked cases, answers included:
| Residues | protein stability index |
| --- | --- |
| FDKEWVAHQTKRMLDMKVNPIQGL [K8H] | 1.77 |
| FDKEWVAKQTKRMLDMDVNPIQGL [K17D] | 2.49 |
| FDKEWVAKQTKRMLDMKVQPIQGL [N19Q] | 1.64 |
| FDKEWVAKQTKRMLDMKVNPIQGY [L24Y] | 1.59 |
| FDKEWRAKQTKRMLDMKVNPIQGL [V6R] | 2.1 |

Would you kindly share the measured protein stability index for FDKEWVAKQTKRMLDMKVNPIQHL [G23H] ?
1.4

Which protein stability index reading was recorded for the variant DDKEWVAKQTKRMLDMKVNPIQGL [F1D] ?
4.38

Any idea what its protein stability index is? The variant is FDKEWVAKQYKRMLDMKVNPIQGL [T10Y]
1.6

Reported protein stability index for FDKEWVAKQTKRMLDMKVNPSQGL [I21S] : what is it?
1.32

Item under review: FDKEWVAFQTKRMLDMKVNPIQGL [K8F] . Reported protein stability index?
1.99

Fill in: protein stability index of FDKEWVAKQTKRMLDMKVNPITGL [Q22T] is ___
1.91
